- Study target: Prostaglandin G/H synthase 2 (Homo sapiens, UniProt P35354)
- Sequence (P35354 whole entry): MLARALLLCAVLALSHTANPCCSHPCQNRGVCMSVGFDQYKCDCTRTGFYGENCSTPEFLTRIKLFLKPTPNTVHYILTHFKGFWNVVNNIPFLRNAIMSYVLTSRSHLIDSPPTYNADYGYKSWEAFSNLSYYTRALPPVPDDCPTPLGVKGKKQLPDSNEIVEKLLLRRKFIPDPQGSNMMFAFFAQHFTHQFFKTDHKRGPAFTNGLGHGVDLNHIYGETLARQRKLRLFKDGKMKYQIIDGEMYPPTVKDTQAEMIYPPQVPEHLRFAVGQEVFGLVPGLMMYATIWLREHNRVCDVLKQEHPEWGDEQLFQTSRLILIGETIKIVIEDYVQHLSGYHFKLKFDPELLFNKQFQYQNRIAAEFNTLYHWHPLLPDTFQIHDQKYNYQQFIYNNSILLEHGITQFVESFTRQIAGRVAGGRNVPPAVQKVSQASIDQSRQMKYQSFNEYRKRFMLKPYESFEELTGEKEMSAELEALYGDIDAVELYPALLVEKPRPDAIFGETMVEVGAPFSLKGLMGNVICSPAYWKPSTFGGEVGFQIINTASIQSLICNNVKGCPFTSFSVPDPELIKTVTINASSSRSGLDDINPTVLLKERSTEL
Assay endpoint: pIC50
Please express pIC50 as -log10 of the molar concentration.

Input line: I have this compound here, CCSc1cccc(-c2ccc(C(C)C(=O)O)cc2)c1 (centres undefined) , and I need its recorded pIC50.
Output line: 6.48

Input line: I have this compound here, C/C=C/c1cncc(-c2ccc(C(C)C(=O)O)cc2)c1 (centres undefined) , and I need its recorded pIC50.
Output line: 6.17

Input line: I have this compound here, CC(C(=O)O)c1ccc(-c2ccc3[nH]ccc3c2)cc1 (centres undefined) , and I need its recorded pIC50.
Output line: 6.72

Input line: I have this compound here, CC(C(=O)O)c1ccc(-c2ccccc2)cc1 (centres undefined) , and I need its recorded pIC50.
Output line: 7.68
